molecular target: evasin 1 (EVA1_RHISA), C-terminally tagged (Rhipicephalus sanguineus, UniProt P0C8E7 21-114, K92N); experiment: BLI
Each record is given 1.0 if its reported Kd is strictly below 20 nM. Records at or above 20 nM are given 0.0.

Some solved entries appear below for comparison.
1. CCL4 (ligand) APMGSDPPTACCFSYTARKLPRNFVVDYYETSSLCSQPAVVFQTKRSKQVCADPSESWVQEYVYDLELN; 0.0
2. CCL3L1 (ligand) APLAADTPTACCFSYTSRQIPQNFIADYFETSSQCSKPSVIFLTKRGRQVCADPSEEWVQKYVSDLELSA; 0.0
3. CCL4L1 (ligand) APMGSDPPTACCFSYTARKLPRNFVVDYYETSSLCSQPAVVFQTKRGKQVCADPSESWVQEYVYDLELN; 0.0
4. CCL3 (ligand) SLAADTPTACCFSYTSRQIPQNFIADYFETSSQCSKPGVIFLTKRSRQVCADPSEEWVQKYVSDLELSA; 1.0
5. CCL18 (ligand) AQVGTNKELCCLVYTSWQIPQKFIVDYSETSPQCPKPGVILLTKRGRQICADPNKKWVQKYISDLKLNA; 1.0

Next, consider the following binder.
Input line: Is Kd strictly under 20 nM for the entry CCL14 (ligand) TKTESSSRGPYHPSECCFTYTTYKIPRQRIMDYYETNSQCSKPGIVFITKRGHSVCTNPSDKWVQDYIKDMKEN ?
Output line: 0.0

Values were extracted from paper PMC5912465.
